- Tested on: Mus musculus
- ASSAY SUMMARY: In vivo inhibition against PAF induced hemoconcentration in mice at a concentration of 3 mg/kg
- Format: functional
MEASURED METRIC: inhibition in vivo at 3 mg/kg (%)
Reply with just the number (in %).

Worked examples, 4 molecules total:
Short answer for CCCCN(O)C(=O)Nc1cc([C@@H]2CC[C@@H](c3cc(OC)c(OC)c(OC)c3)O2)cc(OC)c1OCCSc1c(F)c(F)cc(F)c1F (racemic) : inhibition in vivo at 3 mg/kg was 59

Record CCCCN(O)C(=O)Nc1cc([C@@H]2CC[C@@H](c3cc(OC)c(OC)c(OC)c3)O2)cc(OC)c1OCCSc1ccccc1Br (racemic) . Reported inhibition in vivo at 3 mg/kg: 34

inhibition in vivo at 3 mg/kg measured on CCCCN(O)C(=O)Nc1cc([C@@H]2CC[C@@H](c3cc(OC)c(OC)c(OC)c3)O2)cc(OC)c1OCCS(=O)(=O)c1c(F)c(F)cc(F)c1F (racemic) = 50

Reported inhibition in vivo at 3 mg/kg ( CCCCN(O)C(=O)Nc1cc([C@@H]2CC[C@@H](c3cc(OC)c(OC)c(OC)c3)O2)cc(OC)c1OCCS(=O)(=O)c1ccccc1Br (racemic) ) = 60

Next:
Kindly note the recorded inhibition in vivo at 3 mg/kg for CCCCN(O)C(=O)Nc1cc([C@@H]2CC[C@@H](c3cc(OC)c(OC)c(OC)c3)O2)cc(OC)c1OCCSc1ccc(OC)cc1 (racemic) , which is 24

Record COc1cc([C@@H]2CC[C@@H](c3cc(OC)c(OC)c(OC)c3)O2)cc(CNC(=O)N(C)O)c1OCCSc1ccc(Cl)cc1 (racemic) . Reported inhibition in vivo at 3 mg/kg: 56

###

- SYSTEM: Polyunsaturated fatty acid 5-lipoxygenase (Rattus norvegicus)
- ASSAY SUMMARY: Inhibition of 5-lipoxygenase mediated conversion of [14C]arachidonic acid to leukotrienes in RBL-2H3 cells
- Assay type: cell-based
MEASURED METRIC: IC50 (nM)
Numeric only. Scale: nM

Given item CCCCN(O)C(=O)Nc1cc([C@@H]2CC[C@@H](c3cc(OC)c(OC)c(OC)c3)O2)cc(OC)c1OCCSc1ccc(Br)cc1 (racemic) , the value recorded as its IC50 is 19

###

- SYSTEM: Platelet-activating factor receptor (Homo sapiens, UniProt P25105)
- Sequence (P25105 whole entry): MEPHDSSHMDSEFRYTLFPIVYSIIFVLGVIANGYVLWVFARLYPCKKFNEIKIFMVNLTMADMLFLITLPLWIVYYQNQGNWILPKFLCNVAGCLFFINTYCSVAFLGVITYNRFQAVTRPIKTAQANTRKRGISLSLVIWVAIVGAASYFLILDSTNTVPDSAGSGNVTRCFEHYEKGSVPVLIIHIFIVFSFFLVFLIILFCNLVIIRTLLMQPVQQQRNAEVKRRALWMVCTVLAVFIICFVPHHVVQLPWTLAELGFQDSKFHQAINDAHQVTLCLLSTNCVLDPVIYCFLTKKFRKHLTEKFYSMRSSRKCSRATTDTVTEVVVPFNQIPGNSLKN
pIC50: −log10 of the molar value.
Criterion: pIC50 meeting or surpassing 8. Met: t. Not met: f.

Before answering, review these 4 worked examples.
Please tell me: is the compound CCCCN(O)C(=O)Nc1cc([C@@H]2CC[C@@H](c3cc(OC)c(OC)c(OC)c3)O2)cc(OC)c1OCCSc1ccccc1Br (racemic) at or over 8 in terms of pIC50?
f

Check if pIC50 >= 8 (inclusive). Item: CCCCN(O)C(=O)Nc1cc([C@@H]2CC[C@@H](c3cc(OC)c(OC)c(OC)c3)O2)cc(OC)c1OCCSc1c(F)c(F)cc(F)c1F (racemic)
t

Identify whether the reported pIC50 of the following compound is 8 or greater: CCCCN(O)C(=O)Nc1cc([C@@H]2CC[C@@H](c3cc(OC)c(OC)c(OC)c3)O2)cc(OC)c1OCCSc1ccc(Br)cc1 (racemic)
f

Say whether CCCCN(O)C(=O)Nc1cc([C@@H]2CC[C@@H](c3cc(OC)c(OC)c(OC)c3)O2)cc(OC)c1OCCSc1ccc(OC)cc1 (racemic) shows pIC50 of 8 or more.
f

# next compound below
Does pIC50 meet or surpass 8 for CCCCN(O)C(=O)Nc1cc([C@@H]2CC[C@@H](c3cc(OC)c(OC)c(OC)c3)O2)cc(OC)c1OCCS(=O)(=O)c1c(F)c(F)cc(F)c1F (racemic) ?
f

###

- SYSTEM: Polyunsaturated fatty acid 5-lipoxygenase (Rattus norvegicus, UniProt P12527)
- Sequence (P12527 whole entry): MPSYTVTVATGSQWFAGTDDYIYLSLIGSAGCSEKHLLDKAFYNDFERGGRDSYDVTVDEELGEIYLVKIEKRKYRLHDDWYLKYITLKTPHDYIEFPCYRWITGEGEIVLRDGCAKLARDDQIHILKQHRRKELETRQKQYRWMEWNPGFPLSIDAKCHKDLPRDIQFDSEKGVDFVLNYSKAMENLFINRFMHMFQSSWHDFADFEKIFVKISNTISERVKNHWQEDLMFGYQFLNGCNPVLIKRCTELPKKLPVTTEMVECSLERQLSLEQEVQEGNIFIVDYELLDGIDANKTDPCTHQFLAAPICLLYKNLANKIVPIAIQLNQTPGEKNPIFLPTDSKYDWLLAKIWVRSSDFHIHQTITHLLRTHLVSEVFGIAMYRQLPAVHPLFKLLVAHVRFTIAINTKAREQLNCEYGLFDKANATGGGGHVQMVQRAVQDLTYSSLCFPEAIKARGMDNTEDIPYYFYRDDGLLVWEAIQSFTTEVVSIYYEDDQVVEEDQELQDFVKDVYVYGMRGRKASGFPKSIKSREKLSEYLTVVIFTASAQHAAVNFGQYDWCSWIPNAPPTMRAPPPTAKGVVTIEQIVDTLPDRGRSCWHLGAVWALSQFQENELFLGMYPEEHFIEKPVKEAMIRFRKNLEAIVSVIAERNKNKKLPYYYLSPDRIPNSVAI
- ASSAY SUMMARY: Inhibition of 5-lipoxygenase mediated conversion of [14C]arachidonic acid to leukotrienes in RBL-2H3 cells
- Assay type: cell-based
MEASURED METRIC: IC50 (nM)
Please state the figure in nM; there is no need to write the unit.

Here are 2 compounds together with their reported answers.
For CC(C#Cc1ccc(Oc2ccc(F)cc2)o1)N(O)C(N)=O (stereo not drawn) the compound record lists IC50 as 298

CCCCN(O)C(=O)Nc1cc([C@@H]2CC[C@@H](c3cc(OC)c(OC)c(OC)c3)O2)cc(OC)c1OCCSc1ccc(OC)cc1 (racemic) has a reported IC50 of 71

Note: attention shifts to another entry.
Data point: CCCCN(O)C(=O)Nc1cc([C@@H]2CC[C@@H](c3cc(OC)c(OC)c(OC)c3)O2)cc(OC)c1OCCS(=O)(=O)c1c(F)c(F)cc(F)c1F (racemic) ; IC50 = 520
